- System: goosegrass
- assay-method-text: Test F preemergence test
- Type: in vivo, Eleusine indica
- cond: 62 g ai/ha, Preemergence; scale 0 to 100
property: Goosegrass plant response rating
Form: value (number only, do not type unit).

For orientation, consider the following solved cases.
> print(dat)
                                   compound  recorded.value
1  CC(c1c(C(F)(F)F)nn(C)c1OCC(F)(F)F)S(=O)(=O)c1cccc[n+]1[O-] (racemic)              98
2  Cn1nc(C(F)(F)F)c(C[S+]([O-])c2ccc(F)c[n+]2[O-])c1OC(F)F (centres unmarked)              98
3  CCn1nc(C(F)(F)F)c(C[S+]([O-])c2cc(C)cc[n+]2[O-])c1OCC(F)(F)F (racemic)              75
4  Cn1nc(C(F)(F)F)c(CS(=O)(=O)c2cccc[n+]2[O-])c1OCC(F)(F)F             100
5  CCc1cc[n+]([O-])c(S(=O)(=O)Cc2c(C(F)(F)F)nn(C)c2OCC(F)(F)F)c1              80

Goosegrass plant response rating measured on Cn1nc(C(F)(F)F)c(C[S+]([O-])c2cccc[n+]2[O-])c1Cl (centres unmarked) = 80

Goosegrass plant response rating measured on "CCn1nc(C(F)(F)F)c(CS(=O)(=O)c2cc(C)cc[n+]2[O-])c1OCC(F)(F)F" = 90

Goosegrass plant response rating measured on Cc1cc[n+]([O-])c(S(=O)(=O)C(C)c2c(C(F)(F)F)nn(C)c2OC(F)F)c1 (centres unmarked) = 98
